System: Mus musculus
method: Toxicity against BALB/c Mus musculus (mouse) assessed as SGPT level at 10 mg/kg, ip administered 2 times per week for 30 days (reference value: 28 +/- 5 IU/l)
Format: organism-based
Set-up: dose 10 mg/kg, route intraperitoneal
conditionDetails: in vivo, 720 h
Assignment: determine reported Activity for the given compounds.
One number for each entry, in IU/L.

These solved cases illustrate the format of a correct answer.
O=C1CN(c2ccccc2)C(=O)CN1c1ccccc1 : 34
Cc1ccc(N2CC(=O)N(c3ccc(C)cc3)CC2=O)cc1 : 33
O=C1CN(C2CCCCC2)C(=O)CN1C1CCCCC1 : 30

Provide Activity for all items below, preserving their order.
1. O=C1CN(c2cccc(Cl)c2)C(=O)CN1c1cccc(Cl)c1
2. O=C1CN(c2ccccc2Cl)C(=O)CN1c1ccccc1Cl

A)
28
28
